B1: H2-Kb / Ed40 (parent complex)
chain 1: GDSVTQTEGPVTVSESESLIINCTYSATSIAYPNLFWYVRYPGEGLQLLLKVITAGQKGSSRGFEATYNKETTSFHLQKASVQESDSAVYYCALGDGYTGNYKYVFGAGTRLKVIA
chain 2: DSGVVQSPRHIIKEKGGRSVLTCIPISGHSNVVWYQQTLGKELKFLIQHYEKVERDKGFLPSRFSVQQFDDYHSEMNMSALELEDSAMYFCASSGASAETLYFGSGTRLTVL
chain 3: not shown
chain 4: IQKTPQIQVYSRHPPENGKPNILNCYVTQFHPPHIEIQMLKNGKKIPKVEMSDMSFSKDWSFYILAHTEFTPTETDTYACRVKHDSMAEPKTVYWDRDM
chain 5: SIINFEKL

Variants of: B1
experimental.protocol: % of reporter cells activated (NFAT-GFP), raw; note: test concentration or dose not given here
Using ratio to parent as the sorting value, the categories are bin A (below 0.5), bin B (0.5 to below 0.6), bin C (0.6 or more)

variant.id: chain 5 L8S
class.name: bin C

variant.id: chain 5 S1D
class.name: bin C

variant.id: chain 5 L8Y
class.name: bin C

variant.id: chain 5 E6V
class.name: bin A

variant.id: chain 5 E6W
class.name: bin A

variant.id: chain 5 I3M
class.name: bin A

Band for chain 5 E6H ?
bin A

Could you place chain 5 I2A in its proper category? Many thanks.
bin C

Category of chain 5 N4K :
bin A
